pKi: −log10 of the molar value.
Target or system D(3) dopamine receptor (Homo sapiens): recorded pKi listed per item.

[
  {
    "mol_smiles": "O=C(CCCN1CCC(c2noc3cc(F)ccc23)CC1)c1cc2c3c(c1)CCN3C(=O)CC2",
    "tested_system": "D(3) dopamine receptor (Homo sapiens)",
    "pKi": 8.77
  },
  {
    "mol_smiles": "Cc1cc(=O)oc2c(Cl)c(OCCCCN3CCC(c4noc5cc(F)ccc45)CC3)ccc12",
    "tested_system": "D(3) dopamine receptor (Homo sapiens)",
    "pKi": 8.37
  }
]

* * *

For reference, pIC50 measured on UniProtKB Q12809:
pIC50: −log10 of the molar value.

[
  {
    "mol_smiles": "CN1CCN(Cc2ccc(OCCCN3CCC(c4noc5cc(F)ccc45)CC3)cc2)CC1",
    "tested_system": "UniProtKB Q12809",
    "pIC50": 5.81
  },
  {
    "mol_smiles": "Fc1ccc2c(C3CCN(CCCOc4ccc(CCN5CCCCC5)cc4)CC3)noc2c1",
    "tested_system": "UniProtKB Q12809",
    "pIC50": 5.64
  },
  {
    "mol_smiles": "CN1CCN(Cc2ccc(OCCCCN3CCC(c4noc5cc(F)ccc45)CC3)cc2)CC1",
    "tested_system": "UniProtKB Q12809",
    "pIC50": 5.98
  },
  {
    "mol_smiles": "Fc1ccc2c(C3CCN(CCCOc4ccc(CCN5CCOCC5)cc4)CC3)noc2c1",
    "tested_system": "UniProtKB Q12809",
    "pIC50": 5.62
  }
]

Value source: ChEMBL document CHEMBL4819047
